Data origin: patent US20240116985A1

Below, each of the compounds is paired with its reported inhibition at 10 µM value.
Target: beta-catenin/TCF4 engagement (Homo sapiens, UniProt P35222)
Construct: expressed in transfected cells; host or cells: HEK293
Sequence (P35222 whole entry): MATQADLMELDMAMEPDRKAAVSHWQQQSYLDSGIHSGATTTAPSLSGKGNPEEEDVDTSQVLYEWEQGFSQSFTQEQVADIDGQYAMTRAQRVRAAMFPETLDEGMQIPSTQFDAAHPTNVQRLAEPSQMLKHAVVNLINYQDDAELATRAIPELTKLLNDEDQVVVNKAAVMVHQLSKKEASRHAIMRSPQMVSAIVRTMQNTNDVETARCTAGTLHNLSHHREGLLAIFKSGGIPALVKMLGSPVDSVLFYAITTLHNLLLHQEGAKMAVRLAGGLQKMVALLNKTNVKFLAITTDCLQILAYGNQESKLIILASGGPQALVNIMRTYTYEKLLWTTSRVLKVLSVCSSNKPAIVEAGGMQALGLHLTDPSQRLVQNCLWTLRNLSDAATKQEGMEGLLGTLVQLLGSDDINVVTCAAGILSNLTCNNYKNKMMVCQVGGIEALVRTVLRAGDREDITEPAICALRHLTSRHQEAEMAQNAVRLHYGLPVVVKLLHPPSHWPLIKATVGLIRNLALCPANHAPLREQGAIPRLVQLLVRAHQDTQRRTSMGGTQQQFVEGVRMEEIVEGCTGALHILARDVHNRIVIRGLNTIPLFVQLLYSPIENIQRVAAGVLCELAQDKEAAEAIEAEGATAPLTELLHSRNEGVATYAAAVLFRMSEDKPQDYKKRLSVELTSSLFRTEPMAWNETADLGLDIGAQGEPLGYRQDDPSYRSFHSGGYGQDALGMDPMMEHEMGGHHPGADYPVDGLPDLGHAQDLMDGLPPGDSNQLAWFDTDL
Experiment: Nano-BRET target engagement assay (B-cat-Halo & TCF4-Luc in HEK293 cells)
Type: cell-based
Conditions: HEK293, @ 10 uM; read-out: NanoBRET % inh @ 10 uM
Kindly answer with a numeric value in %, unit omitted.

Study these solved cases before continuing.
CC(=O)N1CCC[C@]12CC=CCCCC1(CCCC=CCCCCCC[C@@](C)(C(=O)N[C@@H](Cc3ccccc3)C(=O)N[C@@H](Cc3csc4ccccc34)C(=O)N[C@@H](CC(N)=O)C(N)=O)NC(=O)[C@H](CC(N)=O)NC(=O)[C@H](Cc3ccccc3)NC(=O)[C@H](C)NC(=O)[C@H](C)NC(=O)[C@H](CCC(=O)O)NC(=O)[C@H](CC(=O)O)NC1=O)NC(=O)[C@H](CC(C)C)NC(=O)[C@H](CC(=O)O)NC2=O (stereo partly drawn) [I-752]; 53
CC(=O)N1CCC[C@]12CC=CCCCC1(CCCC=CCCCOC(=O)N3CC[C@@](C(=O)N[C@@H](Cc4ccsc4)C(=O)N[C@@H](Cc4csc5ccccc45)C(N)=O)(C3)NC(=O)[C@H](CC(N)=O)NC(=O)[C@H](Cc3ccccc3)NC(=O)[C@H](C)NC(=O)[C@H](C)NC(=O)[C@H](CC(=O)O)NC(=O)[C@H](CC(=O)O)NC1=O)NC(=O)[C@H](CC(C)(C)C)NC(=O)[C@H](CC(=O)O)NC2=O (stereo partly drawn) [I-785]; 31

Consider the additional compound presented here.
// inhibition at 10 µM lookup, key: CC(=O)N1CCC[C@]12CC=CCCCC1(CCCC=CCCCOC(=O)N3CC[C@@](C(=O)N[C@@H](Cc4ccccc4)C(=O)N[C@@H](Cc4csc5ccccc45)C(=O)N[C@@H](Cc4c[nH]cn4)C(N)=O)(C3)NC(=O)[C@H](CC(N)=O)NC(=O)[C@H](Cc3ccccc3)NC(=O)[C@H](C)NC(=O)[C@H](C)NC(=O)[C@H](CC(=O)O)NC(=O)[C@H](CC(=O)O)NC1=O)NC(=O)[C@H](CC(C)(C)C)NC(=O)[C@H](CC(=O)O)NC2=O (stereo partly drawn) [I-777] 24.5
